TESTED_ON: TACE (Homo sapiens, UniProt P78536)
Sequence (P78536 215-824): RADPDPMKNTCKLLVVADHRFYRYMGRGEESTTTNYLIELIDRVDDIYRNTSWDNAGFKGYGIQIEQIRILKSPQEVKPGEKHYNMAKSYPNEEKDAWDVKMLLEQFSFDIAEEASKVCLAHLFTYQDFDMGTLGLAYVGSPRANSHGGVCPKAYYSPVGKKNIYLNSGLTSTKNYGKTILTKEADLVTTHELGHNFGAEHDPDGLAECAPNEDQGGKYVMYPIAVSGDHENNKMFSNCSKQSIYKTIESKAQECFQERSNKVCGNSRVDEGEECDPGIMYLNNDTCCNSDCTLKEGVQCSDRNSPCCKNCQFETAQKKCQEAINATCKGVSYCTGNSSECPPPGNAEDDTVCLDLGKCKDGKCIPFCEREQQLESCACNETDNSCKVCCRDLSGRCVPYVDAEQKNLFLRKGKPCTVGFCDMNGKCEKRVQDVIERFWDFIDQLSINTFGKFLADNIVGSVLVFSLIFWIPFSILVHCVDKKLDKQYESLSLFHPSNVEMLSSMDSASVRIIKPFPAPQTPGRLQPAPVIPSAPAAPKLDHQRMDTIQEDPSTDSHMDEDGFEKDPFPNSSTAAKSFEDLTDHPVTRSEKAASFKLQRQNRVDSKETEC
EXPERIMENTAL_DETAILS: TACE inhibition (fluorescent peptidyl substrate)
Assay type: biochemical
READOUT_TYPE: IC50 (nM)
A number alone suffices; assume nM.

The compound `CC#CCOc1ccc(S(=O)(=O)N(C)[C@H](C)CS)cc1` showed IC50 equal to 273
